test system: Sarcoma-180; assay: Antitumor activity against mouse Sarcoma 180 cells allografted in CD1 mouse at 200 mg/kg, ip qd administered shortly post implantation continued for 8 days relative to vehicle-treated control; type: functional, organism-based; set-up: dose 200 mg/kg
Activity calls are given as the source filed them. No cut-off for these calls is given here.
Classes used: true for active, false for inactive

# SMILES_ENTRY, MEASURED_TARGET, LABEL_VALUE
data = [
    ("C[C@H]1O[C@@H]2[C@@H](Oc3nc(N)c(F)c[n+]32)[C@@H]1O", "Sarcoma-180", "true"),
    ("C[C@H]1O[C@@H](n2cc(F)c(=O)[nH]c2=O)[C@H](O)[C@@H]1O", "Sarcoma-180", "true"),
    ("C[C@H]1O[C@@H](n2ccc(N)nc2=O)[C@H](O)[C@@H]1O", "Sarcoma-180", "false"),
    ("C[C@H]1O[C@@H](n2cc(F)c(N)nc2=O)[C@H](O)[C@@H]1O", "Sarcoma-180", "true"),
    ("C[C@H]1O[C@@H](n2ccc(=O)[nH]c2=O)[C@H](O)[C@@H]1O", "Sarcoma-180", "false"),
    ("C[C@H]1O[C@@H]2[C@@H](Oc3nc(=O)c(F)cn32)[C@@H]1O", "Sarcoma-180", "false"),
    ("C[C@H]1O[C@@H](n2cc(F)c(=O)[nH]c2=O)[C@@H]2OC(C)(C)O[C@@H]21", "Sarcoma-180", "false"),
    ("C[C@H]1O[C@@H](n2cc(F)c(N)nc2=O)[C@H]2O[C@H]21", "Sarcoma-180", "false"),
]

Numbers sourced from ChEMBL document CHEMBL3244215.
